The following sequences are listed with their measured apparent KD of K4 kissing-loop reporter values.
system: K4 kissing-loop RNA reporter; assay: apparent KD of K4 kissing-loop reporter; higher = weaker reporter binding; settings: Eterna round: R107; input ligand: tryptophan 2.4 mM;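 also: bound reporter read as fluorescence of individual clusters on recovered sequencing chips by microscopy, with normalized cluster intensities fitted with a binding model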
endpoint: apparent KD of K4 kissing-loop reporter (nM)

>>> recorded_result("AAAUAAAUCAGAGGAUAUUCUUCCCACGUCGAAGUACCGUGCUUGAUGGAGUGAUGUUCGAUCAGAGAAGAAGGCUGAUAAAUAA [Same State FMN B GF 19]")
338
>>> recorded_result("GCCGUAGAUUGAAGGAGCGGACUUAUAGGUCUUAAGGAGUGAUGUUCCUGACACUCGGCGGUCCAGGUAGGUCGCAAUCUACGGC")
272
>>> recorded_result("GCCUAGCAGCGAAGGAGCGCCAGGAGAAGAAAUGGAGAGAGUUGAGUGAUGUUCAAAUGGUGGCAGGUAGGUCGCGCUGCUAGGC [#08 K4 Arginine B Same State]")
377
>>> recorded_result("AGUGUGCAAAAGCACACUCAGUACAAGGACAAGGAUAUCUACUAAUAGAGAAGGUGUCCUUUCCUUAGUGAUGUUAAGGAGCUGA [Omei KL FMN A SS D v2]")
368
>>> recorded_result("CUUGGAAGGACGGCCGCCACUCGACAGUGAUGUUGUCCGAGUGGGUAGCGCAGUGAUGUUGUGUCGAGGACCGGGUCCUAGGAAU [Exclusion Tryptophan B GF 27]")
137
>>> recorded_result("UUUCGUUUCGUCUGACAUAAUUGGCUAGAAGGAGCGGUAAAAUUACCAGGUAGGUCGCUAGCCCAGUGAUGUUGGGACUAGCGUA [Edries]")
125
>>> recorded_result("UGUAAUGGCUGAGCAGCCGUGGUACGAGAUACCAGUGAUUUCGAUCACCCUUGGCAGCUCGGCGUGAGUGAUGUUCACGCUACAC [Theo A SS t12]")
199
>>> recorded_result("CGAGUGAUGUUCGUUUUUUACUUUUUUUGACAGGAUAUGCGGAAACGCAGAAGGGUCACCUUUGAGUUAAAAGAAGUUAUUUUUU [Ex FMN A 18]")
249
>>> recorded_result("UCCUAGGCUCGAAAGAGCCUAGGAUUUACUCAGGAUAUCCGGAAACGGAGAAGGGAGUGACUAGUGAUGUUAGGGACUCCCUAAA")
90.6
>>> recorded_result("CGCAGUGAUGUUGCGAGUAGCUACAGGGAAGGAGCGUGCUAGAGCACAGGUAGGUCGCCCACUGGGUCAGUGAUGUUGGUCGGGU [Same State Arginine A GF 29]")
171
>>> recorded_result("GAUUGUGAUGGAAACAUCGCAAUCUCUGAAGGAGCGCGUGAAAACGCAGGUAGGUCGCAGAACGACAAAGACAGUGAUGUUGUCA [Ex Arginine A K4 5]")
234
>>> recorded_result("CACCAUGAAUUCUCUAGGAGUGAUGUUUUUCGAGGACCGGUACGGCCGCCACUCGGACGAGGACCGUGGGAGCGGCGAACCGACU [ddfgmullin]")
150
>>> recorded_result("AAUGCAUAGUGAAGGAGCGCGAUAAGCAGUGAUGUUGCUUAGCUAUUAUUCAUUUUUUUAACGCAGGUAGGUCGCACUUUGCAUA [JR_ExcArginiB_Sub016]")
144
>>> recorded_result("UAACUGCAGUGAUGUUGCAGAUGUCCUGACUAGGAUAUCAGGAAACUGAGAAGGAGUCCCUUCUACUGCAACAAGAAGGAGGACA [[K1]-[K2]-[F1]'-[F1]-[F2]-[F2]'-[K]'-[F]''_Design2]")
408
>>> recorded_result("GAUGUAGAGGCGGCCGCCACUAGUGAUGUUAGUGAUGUUUGAUACUGUAUAUAUCGGCGUGUAGAUAGGACCGGGCCUGAUGGAG [dbbdmullin]")
201
>>> recorded_result("GAAGGUCAAAGACCUUCGUGCACAUCUGAUACCAGUCGCGAAAGCGACCCUUGGCAGCAGGGCAGUGAUGUUGCCAGUGCACAAA [Omei KL Theo A SS A v4]")
253
>>> recorded_result("UGUAUGUGAUUUGAUACCAGACCAGCUGGUGGAUCACGAGUGAUGUUCGUGUUGGUUUGGGUCCCUUGGCAGCAAAUCGCAUACU [KL-SSTheoB13]")
166
>>> recorded_result("UGAUUUAACUGAAGGAGCGGCAAUUGAGAAGGAAAUAUAGUGAUGUUAUAUAAGAGAGAGAGCCAGGUAGGUCGCAGAGGGAGGA [ExArgB.G]")
118
>>> recorded_result("UGUAUUUCGGCGGCCGCCACUGACCAUAGCCUUCGAUGGCCAGUGAUGUUGGCCUCUGGCUCUAACAGGACCGGGCCGAAUUGCG [Usvediin]")
132
>>> recorded_result("UCUCCAGUGAUGUUGGAGACGGAUGAGGAAGGAGCGGGCACGUGCCCAGGUAGGUCGCCUCGAAAGCCCUGUAGCAUCGCGAAAC [Disoribe]")
149
>>> recorded_result("GUGCAGUGAUGUUGCACGAGGAAAGACGAUACCAGCCGUAAAUAUGGCCCUUGGCAGCGUGGGCUAGCACAAAAUGUGCUAGUCU [Zareatza]")
98.2
>>> recorded_result("GGAUAGGAUAGAGGAUAUGGCUUACACAGAAAUAACUUGUUGUGUUUAUCCAUAGGGAGUGAUGUUCCAGAAGGCUGUCCUAUCG [MatMod 19 - Jieux - Exclusion - FMN B]")
161
>>> recorded_result("CGCGCGUGAGGACUUGCCCUUCAUGGAGAUACCAGCCAGUAUGCGGGCCCUUGGCAGCUCGAGUGAUGUUCGAGUUUAAGGCAAA [Riesla]")
108
>>> recorded_result("CCGGACACCUCGGAUACCAGCCUGAGUGAUGUUCAAGCUGAACUCUCUUAAUAGGUCACCGGCCCUUGGCAGCCGCAUCCUAAGC [theeternabot_exclusion_KL_Theo_B_46]")
313

----------
The following sequences are listed with their measured apparent KD of MS2 coat protein values.
tested on: MS2 coat protein; experiment: apparent KD of MS2 coat protein; designed switch direction (-1 OFF switch, 1 ON switch): 1; higher = weaker reporter binding; details: input ligand: none
endpoint: apparent KD of MS2 coat protein

>>> recorded_result("AUAAGAAACACAGGAUAUACCGCACUUAACGCGGUAGAAGGGUGGGACAUGAGGAUCACCCAUGUGGCCCGGGCGCCGGACCGC [Edquzative] (Eterna round: R96, puzzle: Same State NG 1)")
"122 nM"
>>> recorded_result("UUAAUGAUGUAAGGAUAUACAUGAGGAUUUCUCGUAGAAGGUACAAGACAUGAGGAUCACCCAUGUGUCGCUCGAAAGAGCGUA [Mat - Same State NG 1 - JL mod - D20] (Eterna round: R96, puzzle: Same State NG 1)")
"316 nM"
>>> recorded_result("CGCAAAGUGUGAGGAUAUUCACACAUGAGGAUCACCCAUGUGACGGUUCCGGCCAGAGGAGAGCAGGAGAAGGCACAACGCGAG [Eternabot solution 5] (Eterna round: R96, puzzle: Same State NG 2)")
"120 nM"
>>> recorded_result("GCCGCACAUGAGGAUCACCCAUGUAAUUACAUGGGAGGAUAUCAGUGCUCGAAAGAGCACUGAGAAGGCCUGAGGC [SS1 - Omei A v1] (Eterna round: R96, puzzle: Same State 1)")
"74.8 nM"
>>> recorded_result("GCUCGGCUGAUGGCCUACAUGAGGAUCACCCAUGUGAGUGGGCAGGAUAUCUAGAUUAAGGAUGUAGAGAAGGGCCUGCCGAGC [SameState NG3 #37] (Eterna round: R96, puzzle: Same State NG 3)")
"496 nM"
>>> recorded_result("ACAUGAGACGCAGGAUAUCUUGUACCUACAUGUGACAUGAGGAUCACCCAUGUGGUAAGUAUGAUAGAGAAGGGCGAGAUAUGU [Equivalance 56 - Jieux - Same State NG 2] (Eterna round: R96, puzzle: Same State NG 2)")
"58.9 nM"
>>> recorded_result("AUUGGGUAACGAGGAUAUCGUUUUUGUUUUUUUCGAGAAGGCGUUAUAGUUUCUUUCUAUUGUUACAUGAGGAUCACCCAUGUU [JR_SSNG1_Sub053] (Eterna round: R96, puzzle: Same State NG 1)")
"16.5 nM"
>>> recorded_result("UUAAUUUACUGAGGAUAUCGUGUCGACUGAGGUGACAUGAGGAUCACCCAUGUGAGAAGUGGUAUCGAGAAGGCAGUAUUCAUA [JR_SSNG2_Sub022] (Eterna round: R96, puzzle: Same State NG 2)")
"506 nM"
>>> recorded_result("GAAAAGACAUGAGGAUCACCCAUGUGAAAGCCUAAGGGCCCACAGGAUAUACAGUGAAAAGCACUGUAGAAGGGUGAUAAAGAC [Ordibidi] (Eterna round: R96, puzzle: Same State NG 3)")
"172 nM"
>>> recorded_result("GUGGUCAGACAUGAGGAUCACCCAUGUGGAAUAAAUAACGGUGAGGAUAUUGAAUAUAGGAUAUACGAGAAGGCAUGAUUGGUG (Eterna round: R96, puzzle: Same State NG 3)")
"123 nM"
>>> recorded_result("GGUACUAACACAGGAUAUGCUAUCCUUUGGGUAGCAGAAGGGUGGUACAUGAGGAUCACCCAUGUGGUGCCAGGGCGUGAGCCC [JL SSNG1 1.96] (Eterna round: R96, puzzle: Same State NG 1)")
"659 nM"
>>> recorded_result("AGGCUCAGACUAGGAUAUACGUGGUCACAUGAGGAUCACCCAUGUCUCGAGCUUCGGCUCGAGGCGUAGAAGGAGUCUGAGCCA [SSNG2/6-D1] (Eterna round: R96, puzzle: Same State NG 2)")
"371 nM"
>>> recorded_result("GAGGAACAGGCCAACAUGAGGAUCACCCAUGUCCUCGCAUUUCAGGAUAUCUGGAAGAAGAAAAAAGAGAAGGGAAGGUGAAGC [AK SSNG3-V2-34.3] (Eterna round: R96, puzzle: Same State NG 3)")
"165 nM"
>>> recorded_result("UUUAGCGUUACAGGAUAUGGUGAGGAUCACCCACUAGAAGGGUAAACAUGUGCGUCGUACAUGAGGAUCACCCAUGUAGGGCGU (Eterna round: R96, puzzle: Same State NG 1)")
"22.6 nM"
>>> recorded_result("GGAGCCGGCCUAGGAUAUUUCAUAAAGAAACAUGAGGAUCACCCAUGUAGGCCAGAAGGCCUUGGGAAGAAGGAGGUCGGCUCC [Loop Effect - G27] (Eterna round: R96, puzzle: Same State NG 2)")
"28.7 nM"
>>> recorded_result("CCAAUGUACAAUUUAGAUCUACAUGAGGAUCACCCAUGUACAGAGGAUAUCAGCUCGUUUAGAGCUGAGAAGGCUGAAUUAAUU [SSNG3/3-A3] (Eterna round: R96, puzzle: Same State NG 3)")
"327 nM"
>>> recorded_result("AUUGCUAUCACAGGAUAUCAUGCGAAAAUCGCGUGAGAAGGGUGGACUCUGUCAUUCACGGAGGACAUGAGGAUCACCCAUGUC [SS NG10LRO16] (Eterna round: R96, puzzle: Same State NG 1)")
"45.8 nM"
>>> recorded_result("UACGCGAGAGGAGGAUAUGCAGAGGAUCACCCUGUAGAAGGCCUCAUAAGGAGGAUAUGCAGAGGAUCACCCUGUAGAAGGCCU [pwkr ssNG DX.22] (Eterna round: R96, puzzle: Same State NG 1)")
"129 nM"

Measured values drawn from the supplement of paper PMC9170038 for this set.
